Parameter 'readout' = Ki; parameter 'system' = TYK2 (Homo sapiens (Human)).
Sequence (P29597 whole entry): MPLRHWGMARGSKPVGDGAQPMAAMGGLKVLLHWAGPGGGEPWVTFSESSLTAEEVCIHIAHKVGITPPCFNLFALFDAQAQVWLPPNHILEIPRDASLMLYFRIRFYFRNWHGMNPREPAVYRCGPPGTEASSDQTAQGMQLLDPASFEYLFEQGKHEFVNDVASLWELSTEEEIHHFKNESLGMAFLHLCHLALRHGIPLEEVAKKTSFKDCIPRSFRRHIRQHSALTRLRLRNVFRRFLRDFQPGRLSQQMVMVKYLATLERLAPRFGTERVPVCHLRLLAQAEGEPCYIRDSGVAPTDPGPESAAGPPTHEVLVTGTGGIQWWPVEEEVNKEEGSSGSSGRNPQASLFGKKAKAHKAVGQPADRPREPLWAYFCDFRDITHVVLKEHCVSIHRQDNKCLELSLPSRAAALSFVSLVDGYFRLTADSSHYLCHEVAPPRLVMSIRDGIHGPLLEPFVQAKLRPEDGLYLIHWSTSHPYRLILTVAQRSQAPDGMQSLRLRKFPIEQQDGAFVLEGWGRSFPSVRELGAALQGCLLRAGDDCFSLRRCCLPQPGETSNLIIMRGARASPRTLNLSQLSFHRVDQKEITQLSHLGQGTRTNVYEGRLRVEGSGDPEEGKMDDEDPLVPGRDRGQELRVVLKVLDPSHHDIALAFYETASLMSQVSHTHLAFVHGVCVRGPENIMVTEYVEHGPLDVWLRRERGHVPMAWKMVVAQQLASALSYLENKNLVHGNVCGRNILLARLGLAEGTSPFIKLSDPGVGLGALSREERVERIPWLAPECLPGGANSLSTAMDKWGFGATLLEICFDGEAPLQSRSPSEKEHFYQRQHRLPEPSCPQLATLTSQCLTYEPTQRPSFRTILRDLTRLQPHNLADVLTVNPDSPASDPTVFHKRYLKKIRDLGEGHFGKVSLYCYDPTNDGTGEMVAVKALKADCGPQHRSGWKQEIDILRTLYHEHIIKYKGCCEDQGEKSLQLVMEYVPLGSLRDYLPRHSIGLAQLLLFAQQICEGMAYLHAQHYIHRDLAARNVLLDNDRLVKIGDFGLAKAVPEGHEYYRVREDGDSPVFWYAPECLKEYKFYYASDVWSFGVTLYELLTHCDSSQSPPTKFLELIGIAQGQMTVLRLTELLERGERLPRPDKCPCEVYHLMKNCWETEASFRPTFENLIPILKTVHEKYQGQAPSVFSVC

# Compound, Target, Quantity Measured, Reported Value
rows = [
    ("O=C1NCc2nc(-c3c(F)cccc3F)nc(Nc3ccc(CC(=O)N4CCOC[C@H]4C(=O)O)cc3)c21 [Compound I-112]", "TYK2 (Homo sapiens (Human))", "Ki", "< 10 nM"),
    ("COc1ccc(Nc2cc(-c3c(F)cccc3Cl)nc3c2C(=O)NC3)nc1 [Compound I-145]", "TYK2 (Homo sapiens (Human))", "Ki", "< 10 nM"),
]

# batch size: 6; output Ki per entry
1. CCNC(=O)Cc1ccc(Nc2nc(-c3c(F)cncc3F)nc3c2C(=O)NC3)cc1 [Compound I-208]
2. O=C1NCc2nc(-c3c(F)cccc3F)nc(Nc3ccc(CC(=O)N4CCOCC4C(=O)O)cc3)c21 (stereo not shown) [Compound I-202]
3. C[C@@H](CO)NC(=O)Cc1ccc(Nc2nc(-c3c(F)cccc3F)nc3c2C(=O)NC3)cc1 [Compound I-74]
4. O=C1NCc2nc(-c3c(F)cccc3Cl)nc(Nc3ccc(C4CCNC4=O)cc3)c21 (stereo not shown) [Compound I-113]
5. O=C1NCc2nc(-c3c(F)cccc3F)nc(Nc3ccc([C@@H]4CCN(CCN5CCOCC5)C4=O)cc3)c21 [Compound I-123]
6. O=C1NCc2nc(-c3c(F)cccc3F)nc(Nc3ccc(CC(=O)N4CCOCC4)cc3)c21 [Compound I-66]

Reply:
["100 to 1000 nM", "< 10 nM", "< 10 nM", "< 10 nM", "< 10 nM", "< 10 nM"]

# batch size: 5; output Ki per entry
1. O=C(O)Cc1ccc(Nc2nc(-c3c(F)cccc3F)nc3c2C(=O)NC3)cn1 [Compound I-17]
2. O=C(O)c1ccc(Nc2nc(-c3c(F)cccc3F)nc3c2C(=O)NC3)cc1 [Compound I-156]
3. COc1ccc(Nc2cc(-c3c(F)cccc3F)nc3c2C(=O)N[C@H]3C)nc1 [Compound I-241]
4. O=C(O)Cc1ccc(Nc2nc(-c3c(F)cccc3F)nc3c2C(=O)NC3)cc1 [Compound I-2]
5. CN1CCN(C(=O)Cc2ccc(Nc3nc(-c4c(F)cccc4F)nc4c3C(=O)NC4)cc2)CC1 [Compound I-67]

Reply:
1. 100 to 1000 nM
2. < 10 nM
3. 100 to 1000 nM
4. < 10 nM
5. < 10 nM

# batch size: 3; output Ki per entry
1. O=C1NCc2nc(-c3c(F)cccc3F)nc(Nc3ccc([C@@H]4CCNC4=O)cc3)c21 [Compound I-87]
2. CCOC(=O)Cc1ccc(Nc2nc(-c3c(Cl)cccc3Cl)nc3c2C(=O)NC3)cc1 [Compound I-5]
3. O=C1NCc2nc(-c3c(F)cccc3F)cc(Nc3ccc(N4CCC(F)(F)CC4)cn3)c21 [Compound I-182]

Reply:
< 10 nM
< 10 nM
< 10 nM
